# target-of-assay: Thiol:disulfide interchange protein DsbA (Escherichia coli (strain K12)) (UniProt P0AEG4)
# Sequence (P0AEG4 whole entry): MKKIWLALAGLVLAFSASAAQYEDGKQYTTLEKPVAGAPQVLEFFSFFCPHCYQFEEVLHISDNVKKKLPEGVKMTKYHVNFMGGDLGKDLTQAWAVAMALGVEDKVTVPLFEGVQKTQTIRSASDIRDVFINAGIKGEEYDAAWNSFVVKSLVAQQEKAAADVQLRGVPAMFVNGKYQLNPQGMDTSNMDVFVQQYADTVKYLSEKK
# assay-details: Binding affinity to Escherichia coli DsbA at 500 uM by CPMG NMR spectroscopy
The source made the active and inactive calls. The rule behind the calls is not given here.
The reply should be one of these categories: 1 (yes) for active, 0 (no) for inactive

Solved entries:
N#Cc1cccc(-c2ccc3c(CC(=O)O)coc3c2)c1    1 (yes)
COc1cccc(-c2ccc3c(CC(=O)O)c(-c4cccc(OC)c4)oc3c2)c1    1 (yes)
COc1ccc(-c2ccc3c(CC(=O)O)coc3c2)cc1    1 (yes)

Could you now consider this next molecule?
Write down the call the test reported for this molecule. Item: O=C(O)Cc1coc2cc(-c3cccc(C(F)(F)F)c3)ccc12 1 (yes)
